Biological target: human PAH with the R408W mutation (Homo sapiens, UniProt P00439, R408W)
Construct: expressed in transfected cells
Sequence (P00439 1-452 R408W): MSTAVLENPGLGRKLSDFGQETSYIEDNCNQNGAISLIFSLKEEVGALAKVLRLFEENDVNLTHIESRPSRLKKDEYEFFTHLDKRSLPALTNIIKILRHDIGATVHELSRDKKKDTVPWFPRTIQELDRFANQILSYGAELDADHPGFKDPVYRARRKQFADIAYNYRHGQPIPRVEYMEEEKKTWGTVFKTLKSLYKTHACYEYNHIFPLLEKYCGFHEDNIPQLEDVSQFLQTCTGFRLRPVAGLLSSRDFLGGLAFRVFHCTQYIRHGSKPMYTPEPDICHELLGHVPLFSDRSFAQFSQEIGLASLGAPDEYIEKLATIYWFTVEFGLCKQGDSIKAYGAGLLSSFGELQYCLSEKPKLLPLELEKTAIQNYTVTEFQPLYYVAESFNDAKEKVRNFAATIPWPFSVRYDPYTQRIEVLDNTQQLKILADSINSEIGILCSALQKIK
Test: Cell Based Phenylalanine Flux Assay
Details: A375 cells expressing human PAH R408W; 24 hrs compound incubation; 13C-Tyrosine by LC-MS; average where tested multiple times; read-out: AC50
Hi there, I'd appreciate the recorded AC50 for every entry that follows.

// worked examples, AC50 included
Cc1nnc(N2CCc3[nH]cnc3[C@H]2c2cc3c(C4CC4)cccn3n2)o1; < 500 nM
Cc1cccnc1-c1nnc(N2CCc3[nH]cnc3[C@H]2c2cc3c(C)cccn3n2)o1; < 500 nM
Cc1cccnc1-c1nnc(N2CCc3[nH]cnc3[C@H]2c2cc3cccc(C(F)(F)F)n3n2)o1; 500 to 1000 nM
Cc1cccn2nc([C@@H]3c4nc[nH]c4CCN3c3nnc(C(F)(F)F)o3)cc12; < 500 nM

Go through the items and report each one's AC50.
1. CC(C)c1cccn2nc([C@@H]3c4nc[nH]c4CCN3c3nnc(C(F)F)o3)cc12
2. O=C(c1oc(-c2ccccn2)nc1C1CC1)N1CCc2[nH]cnc2[C@H]1c1cc2c(C(F)F)cccn2n1
3. CC(C)(F)c1ncc(C(=O)N2CCc3[nH]cnc3[C@H]2c2cc3ccccn3n2)o1
4. O=C(c1nc2ccccc2o1)N1CCc2[nH]cnc2[C@@H]1c1cc2c(C(F)(F)F)cccn2n1

Solution:
1: < 500 nM; 2: < 500 nM; 3: 500 to 1000 nM; 4: > 5000 nM

====

Please respond with reported AC50 for every item in the list.
molecular target: human PAH with the R408W mutation (Homo sapiens, UniProt P00439, R408W); construct: expressed in transfected cells; assay: Cell Based Phenylalanine Flux Assay; conditions: A375 cells expressing human PAH R408W; 24 hrs compound incubation; 13C-Tyrosine by LC-MS; average where tested multiple times; read-out: AC50;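 also: after compound treatment, cells received sepiapterin plus isotope-labelled Phenylalanine for 4 hours, then labelled Tyrosine in the medium was quantified, 10-point 2-fold dilution series run in duplicate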

Cc1cccn2nc([C@@H]3c4nc[nH]c4CCN3c3nnc(-c4ncccc4F)o3)cc12; 500 to 1000 nM
CC(C)c1cccn2nc([C@@H]3c4nc[nH]c4CCN3C(=O)c3nnc(C(C)(C)F)o3)cc12; < 500 nM
Cn1nccc1-c1nnc(C(=O)N2CCc3[nH]cnc3[C@@H]2c2cc3ccccn3n2)o1; > 5000 nM
Fc1cccc(F)c1-c1nnc(N2CCc3[nH]cnc3[C@@H]2c2cc3c(C(F)F)cccn3n2)o1; > 5000 nM
Cc1cccnc1-c1nnc(N2CCc3[nH]cnc3[C@H]2c2cc3ccccn3n2)o1; < 500 nM
CC(C)c1cccn2nc([C@@H]3c4nc[nH]c4CCN3C(=O)c3nnc(-c4cnn(C(F)(F)F)c4)o3)cc12; < 500 nM

For the 7 compounds below, give their AC50 values.
1. O=C(c1cnc(-c2cnccn2)o1)N1CCc2[nH]cnc2[C@@H]1c1cc2c(C(F)(F)F)cccn2n1
2. Cc1cccn2nc([C@H]3c4nc[nH]c4CCN3C(=O)c3ocnc3C3CC3)cc12
3. Fc1cccc(F)c1-c1nnc(N2CCc3[nH]cnc3[C@H]2c2cc3cccc(Cl)n3n2)o1
4. FC(F)c1cccn2nc([C@@H]3c4nc[nH]c4CCN3c3nnc(C4CCC4)o3)cc12
5. O=C(c1nc2ccccc2s1)N1CCc2[nH]cnc2[C@H]1c1cc2ccccn2n1
6. Cc1c(-c2ncc(C(=O)N3CCc4[nH]cnc4[C@H]3c3cc4c(F)cccn4n3)o2)cnn1C
7. COc1cccn2nc([C@H]3c4nc[nH]c4CCN3C(=O)c3nnc(-c4cnn(C(F)F)c4)o3)cc12

Solution:
1: > 5000 nM; 2: 1000 to 5000 nM; 3: < 500 nM; 4: 1000 to 5000 nM; 5: 1000 to 5000 nM; 6: 500 to 1000 nM; 7: > 5000 nM
